molecular target: recombinant soluble homotrimeric HA of A/Netherlands/219/03 (H7N7) (Influenza A virus A/Netherlands/219/03(H7N7)); test: HA microarray, BCC supernatant; conditions: remark: other sources report otherwise
observable: Trimeric HA Binding: RLU

| binder | observed measurement |
| --- | --- |
| TCN-546 (5089_L08) (antibody, V domains shown) VH: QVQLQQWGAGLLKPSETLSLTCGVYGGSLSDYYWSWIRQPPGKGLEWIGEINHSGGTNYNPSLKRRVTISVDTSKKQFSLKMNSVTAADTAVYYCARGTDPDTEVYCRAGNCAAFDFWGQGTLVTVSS VL: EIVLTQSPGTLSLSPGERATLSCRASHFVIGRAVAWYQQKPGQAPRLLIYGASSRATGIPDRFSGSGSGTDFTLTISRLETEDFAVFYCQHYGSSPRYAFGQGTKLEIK | 1450 RLU |
| TCN-527 (5086_C06) (antibody, V domains shown) VH: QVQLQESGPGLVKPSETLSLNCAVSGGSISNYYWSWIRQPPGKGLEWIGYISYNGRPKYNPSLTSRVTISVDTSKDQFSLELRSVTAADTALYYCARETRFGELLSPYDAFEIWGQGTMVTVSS VL: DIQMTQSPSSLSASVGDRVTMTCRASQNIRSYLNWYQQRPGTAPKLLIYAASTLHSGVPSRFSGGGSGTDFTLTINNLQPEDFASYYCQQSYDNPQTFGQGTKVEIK | 8890 RLU |
| TCN-540 (5060_F05) (antibody, V domains shown) VH: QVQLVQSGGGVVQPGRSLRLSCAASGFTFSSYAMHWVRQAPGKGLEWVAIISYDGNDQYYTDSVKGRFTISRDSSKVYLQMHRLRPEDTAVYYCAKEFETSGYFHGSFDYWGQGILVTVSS VL: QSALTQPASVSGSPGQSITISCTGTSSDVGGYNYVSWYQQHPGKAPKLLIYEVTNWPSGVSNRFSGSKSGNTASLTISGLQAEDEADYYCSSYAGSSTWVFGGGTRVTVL | 381 RLU |
